Data provenance: patent USRE48461E1

condition_notes: cynomolgus monkey, in vivo, sc, 40 mg/kg
measurement_type: AST
Please append the unit to your numeric answer.

Data request, read-out AST, for TGATTTAATGGTTGCA [ISIS 569221] (cEt/MOE gapmer chemistry, further chemistry not given here) 73 IU/L

Another: TGATTTAATGGTTGCA [ISIS 569236] (cEt/MOE gapmer chemistry, further chemistry not given here) 45 IU/L

Another: ISIS 584163: antisense compound targeted to human AR (GAACATTATTAGGCTA; 3-10-3 (S)-cEt gapmer, further chemistry not given here) 68 IU/L

====

Answer each item with its documented percent inhibition of AR.
Test system: AR mRNA
test_protocol: Dose-dependent antisense inhibition of human AR in HuVEC cells (electroporation, qRT-PCR RTS3559, IC50)
Assay type: cell-based
condition_notes: 500.0 nM; HuVEC, ~16 h; Table 6
Oligonucleotides are written 5' to 3', each unit as a sugar letter and its base; * is a phosphorothioate linkage, no mark a phosphodiester; rarer units and linkages stand in square brackets, end groups in braces. Plain capitals give the bases only. e = 2'-O-(2-methoxyethyl) (MOE); k = constrained ethyl (cEt); [5mC] = 5-methylcytosine; d = 2'-deoxy (DNA)
Enter your answer as a number in %; do not include the unit.

Data request, read-out percent inhibition of AR, for 560099 (kG*kG*kT*dT*dG*dA*dT*dT*dT*dA*dA*dT*dG*kG*kT*kT) [compound 560099] 89

Another: 560071 (eT*eG*eG*eT*eT*dG*dA*dT*dT*dT*dA*dA*dT*dG*dG*eT*eT*eG*e[5mC]*eA) [compound 560071] 57

Another: 549459 (kA*kT*kG*dG*dT*dT*dG*dA*dT*dT*dT*dA*dA*kT*kG*kG) [compound 549459] 85

Another: 560137 (antisense TTGATTTAATGGTTGC; all C 5-methyl, all phosphorothioate, sugars by position not given here; further chemistry not fully specified) [compound 560137] 91

Another: 549458 (kG*kT*kT*dG*dA*dT*dT*dT*dA*dA*dT*dG*dG*kT*kT*kG) [compound 549458] 88

Another: 560098 (kT*kG*kA*dT*dT*dT*dA*dA*dT*dG*dG*dT*dT*kG*k[5mC]*kA; further chemistry not given here) [compound 560098] 94

Another: 560100 (antisense kT*kG*kG*dT*dT*dG*dA*dT*dT*dT*dA*dA*dT*kG*kG*kT) [compound 560100] 81

Another: 549457 (kT*kT*kG*dA*dT*dT*dT*dA*dA*dT*dG*dG*dT*kT*kG*k[5mC]) [compound 549457] 96
